- PROTOCOL SUMMARY: Whole-blood PK study (IV, IP and PO) in male CD-1 mice
- Format: in vivo, mouse
- RUN PARAMETERS: male, CD-1, mouse, whole blood, iv, 1 mg/kg, mouse blood, IV 1 mg/kg, individual animals 1-3
ASSAY READOUT: AUC(0-t) (ng·h/mL)
Respond numerically; units are ng·h/mL and should not be typed.

Req: State the recorded AUC(0-t) for this entry: "COc1cc(C(=O)/C=C/c2ccc(F)cc2)cc(OC)c1OC"
Resp: 20.2

====

- PROTOCOL SUMMARY: Whole-blood PK study (IV, IP and PO) in male CD-1 mice
- Type: in vivo, mouse
- RUN PARAMETERS: male, CD-1, mouse, whole blood, po, 10 mg/kg, mouse blood, PO 10 mg/kg, individual animals 7-9
ASSAY READOUT: AUC(0-t) (ng·h/mL)
Return type: number; implicit unit ng·h/mL.

Req: I am curious: what AUC(0-t) value has been reported for "COc1cc(C(=O)/C=C/c2ccc(F)cc2)cc(OC)c1OC" ?
Resp: 23.2
